Tested on: HepG2
Experiment: cell viability relative to DMSO; higher = less toxic
Protocol Conditions: 72 h; 100 nM
Recorded Metric: cell viability
For clarity, give the value followed by its unit.

input: Which cell viability value is on record for `CCOC(=O)[C@H](CCc1ccccc1)N[C@@H](C)C(=O)N1Cc2ccccc2C[C@H]1C(=O)O` ?
output: 110%

input: Same question for `CCC[C@@H]1CC(=O)N([C@@H](CC)C(N)=O)C1` please.
output: 101%

input: Also need `CCCCc1nc(Cl)c(CO)n1Cc1ccc(-c2ccccc2-c2nnn[nH]2)cc1` , thanks.
output: 104%

input: One more compound: `O=C(c1ccc2nccnc2c1)N1CCCCC1`
output: 108%

input: Please do the same for `Cc1nc(N)sc1-c1ccnc(Nc2ccc(N3CCOCC3)cc2)n1` as well.
output: 97.9%

input: Can you check `Cc1ccc(S(=O)(=O)NC2c3ccccc3Oc3ccccc32)cc1` next?
output: 103%

input: Record: CC(C)(C)[C@]1(O)CC2OC(=O)CC23C(=O)OC2OC(=O)[C@H](O)C231 (stereo not given in full) [bilobalide]
output: 104%

input: Same thing, different compound: `CC(C)NCCN(C(C)C)S(=O)(=O)c1ccc(Cl)cc1Cl`
output: 102%

input: Here is the next compound: CC(=C(CCOC(=O)C(C)C)SSC(CCOC(=O)C(C)C)=C(C)N(C=O)Cc1cnc(C)nc1N)N(C=O)Cc1cnc(C)nc1N (stereo in doubt)
output: 112%

input: Input `Cc1ccc(-c2ncc(Cl)cc2-c2ccc(S(C)(=O)=O)cc2)cn1`
output: 99.5%

input: // query: `CC(C)(C)c1ccc(CN(Cc2cccc(OCC(=O)O)c2)S(=O)(=O)c2cccnc2)cc1`
output: 91.7%

input: Queued: `CN(C)CCCO[C@@H]1[C@H]2OC(C)(C)O[C@H]2O[C@@H]1[C@H](O)CO`
output: 97.3%

input: // same read-out, input: `CCCCCCCCCCCCC/C=C/[C@@H](O)[C@@H](N)CO[P@](=O)(O)OCC[N+](C)(C)C`
output: 88.5%

input: For C[C@]12CC[C@@H]3c4ccc(OS(=O)(=O)O)cc4CC[C@H]3[C@@H]1CCC2=O [estropipate] then?
output: 103%

input: Let us now turn to `CC(C)(O)C(Cl)(Cl)Cl`
output: 105%

These entries and their values trace back to the supplement of paper PMC13380429.
